System: Wild type
TEST DESCRIPTION: S. aureus survival, RN4220 and DeltatarO strains – OD600, teichoic acid synthesis inhibitors, primary screen (AID 463173)
ASSAY SETUP: S. aureus RN4220 wild type/DeltatarO growth, OD600, 18 h, screened at 18.75 µg/mL (by protocol)
Hit rate of the full screen: of about 52,000 compounds, about 1,700 (3.3%) were called active. No stated cut-off is given here; in the data, active means survival mostly below about 52% (no sharp cut-off); inactive means mostly above about 56%. The list comes from a sample in which actives are over-represented; it also holds close analogues and randomly drawn compounds.
One label from this list, please: class 1 (active), class 0 (inactive)

Task: Called result for `O=C(c1cn(CCOc2ccc(Cl)cc2)c2ccccc12)C1CCCCC1`
Result: class 1

Task: Called result for `CCN(CC)CCNC(=O)Cn1ncc2c([nH]c3ccccc32)c1=O`
Result: class 0

Task: Called result for `Cc1ccccc1OCCn1cc(C(=O)C2CCCCC2)c2ccccc21`
Result: class 0

Task: Called result for `CN(CCCNC(=O)Cn1ncc2c([nH]c3ccccc32)c1=O)Cc1ccccc1`
Result: class 0

Task: Called result for `COc1ccc(OCCn2cc(C(=O)C3CCCCC3)c3ccccc32)cc1`
Result: class 0

Task: Called result for `CCCCN(C)CCNC(=O)Cn1ncc2c([nH]c3ccccc32)c1=O`
Result: class 1

----------
Tested on: Wild type
TEST DESCRIPTION: S. aureus survival, RN4220 and DeltatarO strains – OD600, teichoic acid synthesis inhibitors, primary screen (AID 463173)
ASSAY SETUP: S. aureus RN4220 wild type/DeltatarO growth, OD600, 18 h, hits give low values, screened at 18.75 µg/mL (by protocol)
The whole screen tested about 52,000 compounds, of which about 1,700 (3.3%) were called active. This is one part of a sample in which actives are shown more often than they occur.
hey, just use condition met if measured survival is less than 80%, otherwise condition not met

Examples with answers:
INSERT INTO measurements (molecule, group_label) VALUES
  ('COc1cccc(NC(=O)N(Cc2c[nH]c3ccccc23)C2CCCCCC2)c1', 'condition met'),
  ('CCC(C(=O)Nc1ccc(C(C)=O)cc1)n1cnc2nc3c(cc2c1=O)CCCC3 (stereo not given)', 'condition met'),
  ('COc1cccc(NC(=O)Cn2cc(C(=O)C3CCCCC3)c3ccccc32)c1', 'condition met'),
  ('CS(=O)(=O)c1ccc(-c2nn[nH]n2)cc1', 'condition not met');

Task: Below 80% on survival? Entry `COc1cccc(NC(=O)N(Cc2cn(C)c3ccccc23)C2CCCCCC2)c1`
Result: condition met

Task: Below 80% on survival? Entry `COc1cccc(NC(=O)N(Cc2c[nH]c3ccccc23)C2CCCCC2)c1`
Result: condition met

Task: Below 80% on survival? Entry Cc1cccc(N2CCN(c3ncnc4c3cnn4-c3ccc(Cl)cc3)CC2C)c1 (stereo not given)
Result: condition not met

----------
Tested on: Wild type
TEST DESCRIPTION: S. aureus survival, RN4220 and DeltatarO strains – OD600, teichoic acid synthesis inhibitors, primary screen (AID 463173)
ASSAY SETUP: S. aureus RN4220 wild type/DeltatarO growth, OD600, 18 h, screened at 18.75 µg/mL (by protocol)
Out of some 52,000 compounds screened, about 1,700 (3.3%) were called active. Rule as the data show it: active = survival mostly below about 52% (no sharp cut-off); inactive = mostly above about 56%. The entries come from a sample that favours actives as a whole.
One label from this list, please: active, inactive

Examples with answers:
INSERT INTO results (compound, group_label) VALUES
  ('CC1CCN(c2nc3ccc(C(=O)N4CCN(c5ccccc5)CC4)cc3s2)CC1', 'inactive'),
  ('CCc1ccc(NC(=O)CSc2nc(=O)n(Cc3ccncc3)c3c2CCC3)cc1', 'inactive'),
  ('Cc1ccc(NS(=O)(=O)c2ccc(-c3cc(C)no3)cc2)c(C)c1', 'inactive'),
  ('Cc1noc(-c2ccc(-c3noc(-c4ccccc4)n3)cc2)n1', 'active'),
  ('COc1ccc(CNC(=O)C2CCN(S(=O)(=O)c3c(C)noc3/C=C/c3ccccc3F)CC2)cc1', 'inactive'),
  ('O=C(NCc1ccc(F)cc1)c1ccc2c(Cl)c3c(nc2c1)CCCC3', 'inactive'),
  ('Cc1ccc(NS(=O)(=O)c2ccc3[nH]c4c(c3c2)CCCCCC4)cc1Cl', 'inactive'),
  ('Cc1noc(-c2ccc(-c3noc(-c4ccc(F)cc4)n3)cc2)n1', 'inactive'),
  ('CC(=O)NC1Sc2ccccc2N=C1c1ccccc1 (configuration not stated)', 'inactive'),
  ('COc1cc(NS(=O)(=O)c2ccc3[nH]c4c(c3c2)CCCCCC4)cc(OC)c1', 'inactive');

// switching to the query compound
Task: Called result for `COc1ccc(N2CCN(C(=O)CNS(=O)(=O)c3ccc(Br)s3)CC2)cc1`
Result: inactive
